- ASSAY NOTES: Approximate solubility by stepwise dilution in solvents and solvent mixtures
- Type: physicochemical
- ASSAY CONTEXT: anisole, 22 °C, organic solvent or mixture, thermodynamic from solid, anisole, about 22° C., read-out: Solubility S
- Description: Approximate solubilities were determined by a stepwise dilution of a suspension of about 10 mg of substance in 0.05 mL of solvent. If the substance was not dissolved by addition of a total of at least 10 ml solvent, the solubility was indicated as <1 mg/mL. […] The approximate solubility of crystalline, monohydrate Form MH of NYX-2925 across a range of solvents and solvent mixtures (expressed in volume ratios measured at about 22° C.) is provided in Table 8, below.

COMPOUND	solubility
CC(C)C(=O)N1CCC[C@]12CN([C@H](C(N)=O)[C@@H](C)O)C2=O [Form MH]	~3000 µg/mL

meta.source: patent US12012413B2
